conditions: 303.15 K; 101 kPa; Liquid
REPORTED METRIC: viscosity (mPa·s)
Your answer should be a plain number; it is taken to be in mPa·s.

Entry `CCCCOCCO` — recorded viscosity = 2.486

Entry `CCOCCO` — recorded viscosity = 1.623

Entry `CC(C)CCO` — recorded viscosity = 3.262

Entry `COCCO` — recorded viscosity = 1.55

----------
experiment: refractive index (Na D-line) (dimensionless); details: 303.15 K; 101.33 kPa; Liquid; Standard Abbe refractometry
For each of the molecules below, state its refractive index.
Lab note: jot down the number only; don't add units.

Entry `CC(C)CCO` — recorded refractive index = 1.4035

Entry `CCOCCO` — recorded refractive index = 1.4065

Entry `COCCO` — recorded refractive index = 1.3983

Entry `CCCCOCCO` — recorded refractive index = 1.415

----------
For each of the molecules below, state its mass density.
conditions: 303.15 K; 101 kPa; Liquid; Pycnometric method
Your answer should be a plain number; it is taken to be in kg/m3.

Entry `CCCCOCCO` — recorded mass density = 892

Entry `CCOCCO` — recorded mass density = 919.5

Entry `CC(C)CCO` — recorded mass density = 803.1

Entry `COCCO` — recorded mass density = 956.8

----------
For each of the molecules below, state its viscosity.
details: 323.15 K; 101 kPa; Liquid
Your answer should be a plain number; it is taken to be in mPa·s.

Entry `CC(C)CCO` — recorded viscosity = 1.94

Entry `CCCCOCCO` — recorded viscosity = 1.653

Entry `CCOCCO` — recorded viscosity = 1.143

Entry `COCCO` — recorded viscosity = 1.082

----------
For each of the compounds below, state its speed of sound.
settings: 303.15 K; 101 kPa; Liquid
Numbers after ± are expanded uncertainties.
Kindly report the value followed by its unit.

Entry `CCCCOCCO` — recorded speed of sound = 1288.4 ± 1.3 m/s

Entry `COCCO` — recorded speed of sound = 1324.3 ± 1.4 m/s

Entry `CC(C)CCO` — recorded speed of sound = 1197.4 ± 1.3 m/s

Entry `CCOCCO` — recorded speed of sound = 1301.5 ± 1.3 m/s

----------
conditions: 323.15 K; 101 kPa; Liquid; Pycnometric method
REPORTED METRIC: mass density (kg/m3)
Your answer should be a plain number; it is taken to be in kg/m3.

Entry `CC(C)CCO` — recorded mass density = 789.8

Entry `CCCCOCCO` — recorded mass density = 877.5

Entry `COCCO` — recorded mass density = 937.8

Entry `CCOCCO` — recorded mass density = 903.8

----------
For each of the compounds below, state its viscosity.
conditions: 313.15 K; 101 kPa; Liquid
Your answer should be a plain number; it is taken to be in mPa·s.

Entry `CC(C)CCO` — recorded viscosity = 2.441

Entry `CCCCOCCO` — recorded viscosity = 1.979

Entry `COCCO` — recorded viscosity = 1.288

Entry `CCOCCO` — recorded viscosity = 1.355

----------
details: 313.15 K; 101 kPa; Liquid; Pycnometric method
For each of the compounds below, state its mass density.
Your answer should be a plain number; it is taken to be in kg/m3.

Entry COCCO [2-methoxyethan-1-ol] — recorded mass density = 946.3

Entry CCCCOCCO [2-butoxyethan-1-ol] — recorded mass density = 884.2

Entry CCOCCO [2-ethoxyethan-1-ol] — recorded mass density = 912

Entry CC(C)CCO [3-methylbutan-1-ol] — recorded mass density = 796.4
